Provenance of the data: patent US20250188176A1

# kon annotations
Target: canine IL-4RA (construct not given) (canine)
Assay: SPR, combinatorial Fab-SASA clone

binder	unit_string	kon
AHF21172 (Fab, V domains shown, not shown: small tags and cut ends) VH: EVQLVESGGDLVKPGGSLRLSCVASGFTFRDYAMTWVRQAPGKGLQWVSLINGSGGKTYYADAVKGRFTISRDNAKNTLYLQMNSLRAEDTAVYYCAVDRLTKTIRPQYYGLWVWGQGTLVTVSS VL: DIVMTQTPLSLSVSPGETASISCRSSQSLLYSIGYNYLDWYLQKPGQSPQGLIYLGHKRASGVPDRFSGSGSGTDFTLRISRVEANDTGVYYCMQGLQSPLTFGQGTKLEIKR	M⁻¹ s⁻¹	226000
AHF21199 (Fab, V domains shown, not shown: small tags and cut ends) VH: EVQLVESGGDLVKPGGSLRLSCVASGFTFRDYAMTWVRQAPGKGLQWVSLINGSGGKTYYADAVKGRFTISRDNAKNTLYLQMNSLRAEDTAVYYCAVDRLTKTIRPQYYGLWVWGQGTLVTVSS VL: DIVMTQTPLSLSVSPGETASISCRSSQSLTYSIGYNYLDWYLQKPGQSPQGLIYLGHKRASGVPDRFSGSGSGTDFTLRISRVEANDTGVYYCMQGLQSPLGFGQGTKLEIKR	M⁻¹ s⁻¹	207000
